assay_target: CSF1R phosphorylation in THP-1 cells (Homo sapiens (Human), UniProt P07333)
Sequence (P07333 20-972): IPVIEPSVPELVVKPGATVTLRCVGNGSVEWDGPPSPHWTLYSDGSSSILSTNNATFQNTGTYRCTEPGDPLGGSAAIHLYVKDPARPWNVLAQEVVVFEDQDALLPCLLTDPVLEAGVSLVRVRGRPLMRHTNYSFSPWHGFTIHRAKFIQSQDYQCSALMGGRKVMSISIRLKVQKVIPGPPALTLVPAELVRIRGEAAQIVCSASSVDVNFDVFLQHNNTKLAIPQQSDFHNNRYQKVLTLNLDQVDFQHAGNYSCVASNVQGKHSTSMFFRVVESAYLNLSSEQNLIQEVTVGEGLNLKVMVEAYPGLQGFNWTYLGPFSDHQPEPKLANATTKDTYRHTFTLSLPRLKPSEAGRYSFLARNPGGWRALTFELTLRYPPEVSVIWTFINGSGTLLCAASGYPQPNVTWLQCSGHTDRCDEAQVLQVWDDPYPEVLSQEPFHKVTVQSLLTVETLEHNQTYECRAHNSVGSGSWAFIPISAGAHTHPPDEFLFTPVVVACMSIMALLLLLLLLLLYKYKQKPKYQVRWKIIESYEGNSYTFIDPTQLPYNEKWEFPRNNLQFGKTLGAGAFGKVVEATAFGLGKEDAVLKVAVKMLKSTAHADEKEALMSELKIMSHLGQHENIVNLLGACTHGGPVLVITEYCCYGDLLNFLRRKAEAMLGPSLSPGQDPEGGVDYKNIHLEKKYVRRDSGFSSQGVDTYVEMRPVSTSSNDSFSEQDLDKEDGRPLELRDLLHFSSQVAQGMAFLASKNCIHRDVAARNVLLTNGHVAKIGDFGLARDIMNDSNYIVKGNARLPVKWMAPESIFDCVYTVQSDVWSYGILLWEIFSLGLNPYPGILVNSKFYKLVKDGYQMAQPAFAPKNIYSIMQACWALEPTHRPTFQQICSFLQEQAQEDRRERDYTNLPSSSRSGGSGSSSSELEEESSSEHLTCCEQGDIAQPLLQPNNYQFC
test_method_notes: Detection of CSF1R phosphorylation activity at cell level (p-CSF1R ELISA, M-CSF stimulated THP-1 cells)
Type: cell-based
setup_conditions: THP-1 cells, M-CSF stimulation, p-CSF1R ELISA; read-out: IC50
quantity_kind: IC50 (nM)

Some solved cases for reference:
{"columns": ["molecule", "IC50 [nM]"],
 "data": [
  ["COc1ccc([C@@H]2COc3cc(Oc4ccc5nccc(=O)n5c4)cnc3O2)cn1", 154],
  ["COc1ccc([C@@H]2COc3cc(Oc4ccc5ncc(C)c(=O)n5c4)cnc3O2)nc1", 22],
  ["Cc1cnc2ccc(Oc3cnc4c(c3)OC[C@@H](c3ccc(C5CC5)cn3)O4)cn2c1=O", 18],
  ["COc1ccc([C@H]2COc3cc(Oc4ccc5ncc(C)c(=O)n5c4)cnc3O2)nc1", 182]
]}

I = COc1ccc(COc2ncc(Oc3ccc4ncc(N5CCOCC5)c(=O)n4c3)cc2OC)cc1
II = COc1ccc([C@@H]2COc3cc(Oc4ccc5ncc(C)c(=O)n5c4)cnc3O2)cn1
# compare IC50 for I vs II ; return the one with the smaller value Your answer should be the label of the entry you select.
I
(I: 10 nM, II: 56 nM)
